Listing of recorded TGI by entry.
Test system: NCI-H522 lung
assay remarks: NCI tumour cell line growth inhibition, 48 h

Solved cases below.
CN[C@@H](C)C(=O)N[C@H](C(=O)N1CCC[C@H]1C(=O)Nc1sc(-c2ncco2)nc1-c1ccccc1)C1CCCCC1 :: 28.1 µM
COc1ccc2cc1Oc1ccc(cc1)C[C@H]1c3c(cc4c(c3Oc3cc5c(cc3OC)CCN(C)[C@@H]5C2)OCO4)CCN1C :: 6.77 µM

Q: Under NCI-H522 lung, report TGI for COc1ccc(C=O)c([N+](=O)[O-])c1
Result: > 100 µM

Q: Give TGI for Cn1c(=O)c2[nH]c(CCNC(=O)c3ccccc3)nc2n(C)c1=O tested on NCI-H522 lung.
Result: > 100 µM

Q: State, for NCI-H522 lung, measured TGI of the compound listed here: CC(C)(C)OC(=O)N/N=C(/N)Cc1ccc(Cl)cc1
Result: > 100 µM

Q: With NCI-H522 lung as the test system, provide measured TGI for this compound: NCCSS(=O)(=O)CCN
Result: > 100 µM

Q: Given Cc1n[nH]c(=O)n1N1C(=O)CCCC1=O , report its TGI on NCI-H522 lung.
Result: > 100 µM

Q: Report TGI from NCI-H522 lung testing of COc1cc2c(cc1OCCCn1c(-c3ccccn3)nc3ccccc31)N=C[C@@H]1CCCN1C2=O
Result: 6.81 µM

* * *

Tested on: MALME-3M melanoma
assay remarks: NCI tumour cell line growth inhibition, 48 h
As shown below, each of these compounds has a reported TGI value.

See these solved cases before continuing.
CN=c1ccc2nc3ccc(N)cc3sc-2c1 :: 3.45 µM
O=[N+]([O-])c1ccc(C=Cc2ccccc2)cc1.[C-]#[O+].[C-]#[O+].[C-]#[O+].[Cr] :: > 100 µM
CC1=NNC(=O)C1C1CC(c2c[nH]c3ccccc23)=NNC1=O (stereo unspecified) :: > 100 µM
O=C(/C=C\c1cccc([N+](=O)[O-])c1)/C=C/c1cccc([N+](=O)[O-])c1 :: > 100 µM
CNC(=O)C1(N)c2ccccc2C=Cc2ccccc21 :: > 100 µM
O=C1CC(c2c[nH]c3ccccc23)C(=O)N1 (stereo unspecified) :: > 100 µM

Q: Tell me its TGI given C=C(Br)CNC(=O)Nc1ccc(Cl)c(Cl)c1 as the entry.
Result: 48.6 µM

Q: Dear colleague, please send me the reported TGI for OCC1OC(n2cnc3c(N/N=C\c4ccccn4)ncnc32)C(O)C1O (stereo unspecified) when you can.
Result: 6.19 µM

Q: Please look at this compound and report its TGI: CC1CC(C)C(C#N)N(C)c2ccccc21 (stereo unspecified)
Result: > 100 µM

Q: Report TGI for CCCc1c(-c2ccccc2)[nH]c2ccccc2c1=O
Result: > 100 µM

Q: Quote TGI reported for N#CC1C(=O)NC23CCCCC2C1c1ccccc1O3 (stereo unspecified) please.
Result: > 100 µM

* * *

Tested on: SK-OV-3 ovarian
assay remarks: NCI tumour cell line growth inhibition, 48 h; in the data active = GI50 below about 0.43 µM; inactive = the rest
Answer with one of the outcomes given here: true (1) (active), false (0) (inactive)

Worked cases, answers included:
CC(=O)/C=C/c1cn(C(=O)OC(C)(C)C)c2ccc(Br)cc12 :: false (0)
O=C1OCC2=C1C(c1ccccc1)c1cc3c(cc1N2)OCO3 (stereo unspecified) :: true (1)
O=S(=O)(c1ccc(Cl)cc1)C(Cl)(Cl)Cl :: false (0)

Q: Look up the recorded call for COc1ccc(-c2[nH]c3ccccc3c2-c2ccc(OC)cc2)cc1 in this test.
Result: false (0)

Q: Please indicate how the test categorized C/C(=C\c1ccc2ccccc2c1)[N+](=O)[O-] .
Result: false (0)

Q: Per the records of this test, what outcome belongs to N#CC1(C(N)=O)C(c2ccc(Cl)cc2)CC(=O)CC1c1ccc(Cl)cc1 (stereo unspecified) ?
Result: false (0)

* * *

Test system: HL-60(TB) leukemia
assay remarks: NCI tumour cell line growth inhibition, 48 h
Below is a list of entries, each paired with its recorded TGI value.

Previously resolved entries follow.
COC1C=COC2(C)Oc3c(C)c(O)c4c(c3C2=O)/C(=N/C2CCC(O)OC2C)C=C(NC(=O)/C(C)=C\C(=O)C2CC2C(O)C(C)C(O)C(C)C(OC(C)=O)C1C)C4=O (stereo not given) :: 6.32 µM
CO/N=C(/C)c1ccc(NC(=O)CSc2nnc(-c3ccncc3)n2-c2ccccc2)cc1 :: > 100 µM
CCOC(=O)/C(C=Nc1c(C)n(C)n(-c2ccccc2)c1=O)=C(/C)O :: > 100 µM
CC1=NN(C(=O)c2ccncc2)C(=O)C1 :: > 100 µM

# next compound below
Q: Read off the recorded TGI for O=C1NC(=O)C2C(=O)NC(=O)C1C2c1c(Cl)cccc1Cl (stereo not given)
Result: > 63.4 µM

* * *

# Lookup of reported TGI keyed by entry
Test system: UACC-62 melanoma
assay remarks: NCI tumour cell line growth inhibition, 48 h

Some molecules with known TGI results, for comparison:
CC(=O)Nc1ccc(SC#N)c2c(NC(C)=O)cccc12 :: > 100 µM
Cc1ccc(-c2nnc(-c3nn(-c4ccccc4)c4nc5ccccc5nc34)o2)cc1 :: 30.8 µM
CCN(CC)CC1c2ccccc2C(CNc2ccccc2)N1C (stereo unspecified) :: > 100 µM
N#Cc1c(N2CCOCC2)nc(=S)[nH]c1-c1ccco1 :: 32.7 µM

Q: Under UACC-62 melanoma: report TGI of COc1cc2c(cc1OCCCn1c(-c3ccccn3)nc3ccccc31)N=C[C@@H]1CCCN1C2=O .
Result: 3.04 µM

Q: Under UACC-62 melanoma, report TGI for CC1(C)C=Cc2c(cc(O)c3c(=O)c4cc(Cl)ccc4[nH]c23)O1
Result: > 10 µM

Q: Retrieve TGI on UACC-62 melanoma; query CC1CC(C)C(C#N)N(C)c2ccccc21 (stereo unspecified)
Result: > 100 µM

Q: Recall the reported TGI of COc1cc2c3c(c1)CCCN3CCC2 on UACC-62 melanoma and write it down.
Result: > 10 µM

Q: Using UACC-62 melanoma as the test system, report measured TGI of C/C(=C\c1ccc2ccccc2c1)[N+](=O)[O-] .
Result: 3.26 µM

Q: Provide TGI, tested on UACC-62 melanoma, for COC(=O)C1CC2CC(=NNC(N)=O)CC2C1 (stereo unspecified) .
Result: > 100 µM

Q: Report measured TGI on UACC-62 melanoma; entry: C/C(=N\Nc1ccc([N+](=O)[O-])cc1[N+](=O)[O-])c1sc(-n2nc(-c3ccccc3)cc2-c2ccccc2)nc1C
Result: > 100 µM

* * *

Test system: UACC-257 melanoma
assay remarks: NCI tumour cell line growth inhibition, 48 h
We use 20 µM as the dividing line for TGI: on or above the line is class 1, below is class 0.

Some entries whose results are on file:
CCN(CC)CC1CCCCN1CC(=O)N1c2ccccc2C(=O)Nc2cccnc21 (stereo unspecified) :: class 1
COc1cc2c(c(OC)c1OC)-c1ccc(SC)c(=O)cc1C(NC(=O)c1ccccc1)CC2 (stereo unspecified) :: class 0
CC(=O)Nc1ccc(SC#N)c2c(NC(C)=O)cccc12 :: class 1
C[n+]1ccc(/C2=C3\C=CC(=N3)/C(c3cc[n+](C)cc3)=c3/cc/c([nH]3)=C(\c3cc[n+](C)cc3)C3=N/C(=C(/c4cc[n+](C)cc4)C4C=CC2N4)C=C3)cc1 :: class 1
N#Cc1sc2c(c1OC(=O)c1ccccc1)c(=O)n(-c1ccccc1)c(=S)n2-c1ccccc1 :: class 1

Q: Please indicate if the recorded TGI for CC(=O)c1ccc2c(c1)CC1(C2)Cc2cc3c(cc2C1=O)CCC3 (stereo unspecified) meets or exceeds 20 µM.
Result: class 1

Q: Exam item: decide whether the reported TGI for O=C1CC(c2c[nH]c3ccccc23)C(=O)N1 (stereo unspecified) is at least 20 µM.
Result: class 1

Q: State whether the measured TGI reaches 20 µM, counting equality as reaching it, for Fc1ccc(/C=N/n2c(-c3ccc(F)c(Cl)c3)nn(CNc3ccccc3C(F)(F)F)c2=S)cc1
Result: class 1

Q: Exam item: decide whether the reported TGI for O=c1[nH]cc(COCCCO)c(=O)[nH]1 is at least 20 µM.
Result: class 1

Q: Would you say COC(=O)C1(C)CCc2c(OC)ccc(OC)c2C1=O (stereo unspecified) shows TGI at minimum 20 µM?
Result: class 1

Q: Please check the record CN[C@@H](C)C(=O)N[C@H](C(=O)N1CCC[C@H]1C(=O)Nc1sc(-c2ncco2)nc1-c1ccccc1)C1CCCCC1 and state if its TGI is at or above 20 µM.
Result: class 1

Q: Confirm if TGI reported for the compound O=C(O)c1ccc(C(=O)c2ccccc2)c(C(=O)O)c1 is 20 µM or above.
Result: class 1

* * *

System: ACHN renal
assay remarks: NCI tumour cell line growth inhibition, 48 h
Here the recorded TGI is given for each entry.

CCC1(c2ccccc2)C(=O)N=C(c2ccccc2)N1CCc1ccccc1 (stereo not given) :: > 100 µM
Cc1ccc(/C=C/C(=O)C(C)(C)CN2CCCCC2)cc1 :: 23.7 µM
O=C(/C=C\c1cccc([N+](=O)[O-])c1)/C=C/c1cccc([N+](=O)[O-])c1 :: > 100 µM
COC(=O)[C@@H]1[C@H](OC(C)=O)CCC2[C@@]3(C[C@@H](c4ccoc4)O[C@@H]3OC)[C@H](C)CC[C@]21C(=O)OC (stereo not given in full) :: > 25 µM

Below: the item to evaluate.
Q: Name the recorded TGI of the compound listed here: CCOC(=O)C1C(=S)NC(=O)C1C#N (stereo not given)
Result: > 100 µM
